Exercise: for every item that follows, state its recorded GI50.
- Test system: NCI-H1975 EGFR L858R/T790M cells
- Measurement description: Cell proliferation, NCI-H1975 EGFR L858R/T790M (CellTiter-Glo, 72 h);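 further: viable cells quantified by luciferase-based ATP luminescence, proliferation expressed relative to DMSO-treated wells (100%) after subtracting a parallel plate read at the time of dosing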
- Type: cell-based
- Conditions used: Homo sapiens, NCI-H1975, 72 h, NCI-H1975, 72 h proliferation; read-out: EGFR L858R and T790M mutation GI50
Give bare numbers, in nM.

Below are worked cases with known answers.
* C=CC(=O)Nc1cc(Nc2ncnc(Nc3cc(Cl)c(F)cc3C(C)(O)CC)n2)c(OC)cc1N1CC[C@@H]1CN(C)C (stereo partly shown) | 4.2
* C=CC(=O)Nc1cc(Nc2ncnc(Nc3cc(F)c(C4CC4)cc3C(C)(C)O)n2)c(OC)cc1N1CCC[C@@H]1CN(C)C | 1.4
* C=CC(=O)Nc1cc(Nc2ncnc(Nc3cc(F)c(F)cc3C(C)(O)CC)n2)c(OC)cc1N1CC[C@@H]1CN(C)C (stereo partly shown) | 3.8

Required: GI50, one value per compound below.
1. C=CC(=O)Nc1cc(Nc2ncnc(Nc3cnc(F)cc3C(C)(C)O)n2)c(OC)cc1N(C)CCN(C)C
2. C=CC(=O)Nc1cc(Nc2nccc(Nc3cc(Cl)c(F)cc3C(C)(O)C(F)(F)F)n2)c(OC)cc1N1CC[C@@H](N(C)C)C1 (stereo partly shown)
3. C=CC(=O)Nc1cc(Nc2ncnc(Nc3cc(F)c(C4CC4)cc3C(C)(C)O)n2)c(OC)cc1N(C)CCN(C)C
4. C=CC(=O)Nc1cc(Nc2ncnc(Nc3cc(Cl)c(F)cc3C(C)(C)O)n2)c(OC)cc1N(C)CCN(C)C

Ans.
55.6
4.9
1.6
7.7

----------
- Target entity: human EGFR exon 20 H773_V774insNPH (Homo sapiens, UniProt P00533, INS773NPH)
- Sequence (P00533 with tags, fused parts or gaps INS773NPH): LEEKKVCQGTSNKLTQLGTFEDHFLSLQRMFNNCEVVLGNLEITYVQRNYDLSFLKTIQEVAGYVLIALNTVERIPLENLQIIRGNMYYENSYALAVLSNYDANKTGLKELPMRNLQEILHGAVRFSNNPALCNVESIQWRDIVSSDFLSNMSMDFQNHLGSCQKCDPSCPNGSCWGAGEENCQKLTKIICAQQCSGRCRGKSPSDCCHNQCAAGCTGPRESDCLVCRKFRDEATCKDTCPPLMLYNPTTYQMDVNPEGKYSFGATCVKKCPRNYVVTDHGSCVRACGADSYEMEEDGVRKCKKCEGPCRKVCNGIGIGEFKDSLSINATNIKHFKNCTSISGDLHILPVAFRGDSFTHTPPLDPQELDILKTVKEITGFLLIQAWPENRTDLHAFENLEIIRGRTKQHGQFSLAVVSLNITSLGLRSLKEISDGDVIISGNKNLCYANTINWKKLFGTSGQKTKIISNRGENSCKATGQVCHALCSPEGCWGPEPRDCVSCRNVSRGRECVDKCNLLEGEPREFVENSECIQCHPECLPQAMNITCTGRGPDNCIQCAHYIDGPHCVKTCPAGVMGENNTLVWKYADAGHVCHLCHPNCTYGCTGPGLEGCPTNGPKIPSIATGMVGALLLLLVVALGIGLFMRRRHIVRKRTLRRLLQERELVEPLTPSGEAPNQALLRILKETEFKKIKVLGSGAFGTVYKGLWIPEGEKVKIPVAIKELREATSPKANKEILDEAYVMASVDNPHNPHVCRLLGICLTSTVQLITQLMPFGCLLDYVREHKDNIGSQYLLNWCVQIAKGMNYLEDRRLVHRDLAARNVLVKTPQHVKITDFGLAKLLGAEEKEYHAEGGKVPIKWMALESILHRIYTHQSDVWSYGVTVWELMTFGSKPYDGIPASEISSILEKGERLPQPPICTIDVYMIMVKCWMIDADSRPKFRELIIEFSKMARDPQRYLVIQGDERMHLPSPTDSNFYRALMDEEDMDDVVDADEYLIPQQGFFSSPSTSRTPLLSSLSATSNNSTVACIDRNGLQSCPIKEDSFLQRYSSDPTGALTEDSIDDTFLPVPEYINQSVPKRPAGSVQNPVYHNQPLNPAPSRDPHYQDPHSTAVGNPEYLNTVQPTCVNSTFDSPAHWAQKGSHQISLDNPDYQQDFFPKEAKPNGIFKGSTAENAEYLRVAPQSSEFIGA
- Measurement description: EGFR Exon20 NPH insertion cellular phosphorylation inhibition (MSD pEGFR Y1068/total EGFR);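 further: IL3-independent Ba/F3 cells with constitutively phosphorylated EGFR, compound exposure at 37 °C under 5% CO2, electrochemiluminescent MSD measurement of the p-EGFR to total EGFR ratio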
- Conditions used: Ba/F3 EGFR NPH ins cells, 4 h compound, p-EGFR(Y1068)/total EGFR
Exercise: for every item that follows, state its recorded IC50.
Numbers only, in nM.

Below are worked cases with known answers.
- C=CC(=O)Nc1cc(Nc2ncnc(Nc3cc(Cl)c(F)cc3C(C)(O)CC)n2)c(OC)cc1N1CCC[C@@H]1CN(C)C (stereo partly shown): 5.9
- C=CC(=O)Nc1cc(Nc2ncnc(Nc3ccccc3C(C)(O)C(F)(F)F)n2)c(OC)cc1N(C)CCN(C)C (stereo not shown): 20.8
- C=CC(=O)Nc1cc(Nc2ncnc(Nc3cc(F)c(Cl)cc3C(C)(C)O)n2)c(OC)cc1N(C)CCN(C)C: 10.8

Switching to the query record.
Qu. I have this compound here, C=CC(=O)Nc1cc(Nc2nccc(Nc3cc(Cl)c(F)cc3C(C)(C)O)n2)c(OC)cc1N1CC(F)(F)C[C@@H]1CN(C)C , and I need its recorded IC50.
Ans. 13.8

----------
Exercise: for every item that follows, state its recorded GI50.
- Test system: Ba/F3 EGFR ASV ins cells
- Measurement description: Cell proliferation, Ba/F3 EGFR ASV ins (CellTiter-Glo, 72 h);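 further: IL3-independent Ba/F3 cells transduced with EGFR V769_D770insASV, cellular ATP luminescence after compound exposure, growth relative to DMSO control with the day-0 baseline reading subtracted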
- Type: cell-based
- Conditions used: Ba/F3 EGFR, 72 h, Ba/F3 EGFR ASV ins, 72 h proliferation; read-out: EGFR Exon20 ASV insertion GI50
One number for each entry, in nM.

* C=CC(=O)Nc1cc(Nc2ncnc(Nc3cc(F)c(F)cc3C(C)(O)CC)n2)c(OC)cc1N1CC[C@H]2CN(C)C[C@H]21 (stereo partly drawn) | 449
* C=CC(=O)Nc1cc(Nc2ncnc(Nc3cc(Cl)c(Cl)cc3C(C)(C)O)n2)c(OC)cc1N1CC[C@@H]1CN(C)C | 104

Qu. I have this compound here, C=CC(=O)Nc1cc(Nc2nccc(Nc3cc(Cl)c(F)cc3C(C)(C)O)n2)c(OC)cc1N1CC[C@@H]1CN(C)C , and I need its recorded GI50.
Ans. 84

----------
- Target entity: human Her2 exon 20 insertion mutation YVMA (Homo sapiens, UniProt P04626, INS775YVMA)
- Sequence (P04626 with tags, fused parts or gaps INS775YVMA): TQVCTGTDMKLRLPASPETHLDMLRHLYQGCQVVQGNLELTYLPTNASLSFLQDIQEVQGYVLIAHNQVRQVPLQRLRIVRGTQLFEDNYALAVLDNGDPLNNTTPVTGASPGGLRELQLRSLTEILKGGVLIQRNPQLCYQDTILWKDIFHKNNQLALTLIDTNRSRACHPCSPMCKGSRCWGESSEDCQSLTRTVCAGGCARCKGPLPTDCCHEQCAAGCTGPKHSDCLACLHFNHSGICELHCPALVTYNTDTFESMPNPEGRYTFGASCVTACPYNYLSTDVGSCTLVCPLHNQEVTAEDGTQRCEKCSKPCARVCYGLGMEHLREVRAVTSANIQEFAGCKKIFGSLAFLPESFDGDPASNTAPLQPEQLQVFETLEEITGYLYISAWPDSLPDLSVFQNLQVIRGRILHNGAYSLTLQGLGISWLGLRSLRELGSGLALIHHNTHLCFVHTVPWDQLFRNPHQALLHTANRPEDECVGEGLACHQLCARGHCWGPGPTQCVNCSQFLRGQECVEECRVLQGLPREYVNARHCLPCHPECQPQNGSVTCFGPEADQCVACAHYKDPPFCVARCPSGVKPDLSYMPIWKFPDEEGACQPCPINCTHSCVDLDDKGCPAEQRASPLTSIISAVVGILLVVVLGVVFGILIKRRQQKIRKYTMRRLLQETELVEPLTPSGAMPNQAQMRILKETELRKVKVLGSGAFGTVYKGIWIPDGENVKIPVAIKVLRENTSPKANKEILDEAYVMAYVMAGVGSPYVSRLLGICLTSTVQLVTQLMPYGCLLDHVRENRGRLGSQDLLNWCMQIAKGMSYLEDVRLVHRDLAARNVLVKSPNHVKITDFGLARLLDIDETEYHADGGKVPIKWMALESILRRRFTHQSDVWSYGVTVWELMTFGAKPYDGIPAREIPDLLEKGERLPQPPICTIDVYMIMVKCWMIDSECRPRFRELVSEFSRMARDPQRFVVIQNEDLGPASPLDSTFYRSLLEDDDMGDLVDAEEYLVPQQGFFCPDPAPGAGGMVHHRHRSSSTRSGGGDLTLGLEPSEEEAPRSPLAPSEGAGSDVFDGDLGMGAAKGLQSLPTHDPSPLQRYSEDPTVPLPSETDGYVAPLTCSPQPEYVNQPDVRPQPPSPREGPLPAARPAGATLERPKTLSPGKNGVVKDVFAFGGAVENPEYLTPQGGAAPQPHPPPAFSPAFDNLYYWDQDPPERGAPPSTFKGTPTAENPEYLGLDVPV
- Measurement description: Her2 Exon 20 YVMA insertion cellular phosphorylation inhibition (MSD p-Her2 Y1248/total Her2);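 further: lentivirally transduced NIH-3T3 cells in 1% FBS medium, electrochemiluminescent MSD read-out, graded compound concentrations at 37 °C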
- Conditions used: Her2 YVMAins cells, 4 h compound
Counter-ions that a name gives are not always drawn.
Binary call on IC50 with cut-off 10 nM: strictly below means y, and equality or higher means n.

These recorded examples may help you get a feel for the data.
• C=CC(=O)Nc1cc(Nc2ncnc(Nc3cc(Cl)c(Cl)cc3C(C)(C)O)n2)c(OC)cc1N1CC[C@@H]1CN(C)C [Compound 54] = n
• C=CC(=O)Nc1cc(Nc2ncnc(Nc3cc(Cl)c(F)cc3C(C)(C)O)n2)c(OC)cc1N1CCC[C@@H]1CN(C)C [Compound 31] = y

Qu. Take the compound C=CC(=O)Nc1cc(Nc2ncnc(Nc3cc(F)c(F)cc3C(C)(O)CC)n2)c(OC)cc1N1CC[C@H]2CN(C)C[C@H]21 (stereo partly shown) [Compound 50] and say whether its IC50 is less than 10 nM.
Ans. n

Qu. Take the compound COc1cc(N(C)CCN(C)C)c(NC(=O)/C=C/CN(C)C)cc1Nc1ncnc(Nc2cc(F)c(F)cc2C(C)(C)O)n1 [Compound 5] and say whether its IC50 is less than 10 nM.
Ans. n

Qu. Take the compound C=CC(=O)Nc1cc(Nc2ncnc(Nc3cc(Cl)c(F)cc3C(C)(O)CC)n2)c(OC)cc1N1CC[C@@H]1CN(C)C (stereo partly shown) [Compound 56] and say whether its IC50 is less than 10 nM.
Ans. y

Qu. Take the compound C=CC(=O)Nc1cc(Nc2ncnc(Nc3cc(Cl)c(F)cc3C(C)(C)O)n2)c(OC)cc1N1CC[C@H](N(C)C)C1 [Compound 60] and say whether its IC50 is less than 10 nM.
Ans. n

Qu. Take the compound C=CC(=O)Nc1cc(Nc2ncc(C(F)(F)F)c(Nc3cc(Cl)c(F)cc3C(C)(C)O)n2)c(OC)cc1N1CC[C@@H](N(C)C)C1 [Compound 84] and say whether its IC50 is less than 10 nM.
Ans. n

Qu. Take the compound [2H]C([2H])([2H])N(CCN(C)c1cc(OC)c(Nc2ncnc(Nc3cc(F)c(Cl)cc3C(C)(C)O)n2)cc1NC(=O)C=C)C([2H])([2H])[2H] [Compound 37] and say whether its IC50 is less than 10 nM.
Ans. y

Qu. Take the compound C=CC(=O)Nc1cc(Nc2ncnc(Nc3cc(F)c(C4CC4)cc3C(C)(C)O)n2)c(OC)cc1N(C)CCN(C)C [Compound 34] and say whether its IC50 is less than 10 nM.
Ans. y

Qu. Take the compound C=CC(=O)Nc1cc(Nc2ncnc(Nc3cc(F)c(F)cc3C(C)(O)CC)n2)c(OC)cc1N(C)CCN(C)C (stereo not shown) [Compound 49] and say whether its IC50 is less than 10 nM.
Ans. y

Qu. Take the compound C=CC(=O)Nc1cc(Nc2nccc(Nc3cc(Cl)c(F)cc3C(C)(C)O)n2)c(OC)cc1N1C[C@H](F)C[C@@H]1CN(C)C [Compound 88, formic acid salt] and say whether its IC50 is less than 10 nM.
Ans. y

Qu. Take the compound C=CC(=O)Nc1cc(Nc2ncnc(Nc3cc(Cl)c(F)cc3C(C)(C)O)n2)c(OC)cc1N(C)C[C@@H]1CCCN1C [Compound 44] and say whether its IC50 is less than 10 nM.
Ans. y

Qu. Take the compound C=CC(=O)Nc1cc(Nc2ncnc(Nc3cc(F)c(F)cc3C(C)(C)O)n2)c(OC)cc1N1CC[C@@H]2CN(C)C[C@@H]21 [Compound 17] and say whether its IC50 is less than 10 nM.
Ans. y

----------
Exercise: for every item that follows, state its recorded IC50.
- Target entity: human EGFR exon 20 V769_D770insASV (Homo sapiens, UniProt P00533, INS769ASV)
- Sequence (P00533 with tags, fused parts or gaps INS769ASV): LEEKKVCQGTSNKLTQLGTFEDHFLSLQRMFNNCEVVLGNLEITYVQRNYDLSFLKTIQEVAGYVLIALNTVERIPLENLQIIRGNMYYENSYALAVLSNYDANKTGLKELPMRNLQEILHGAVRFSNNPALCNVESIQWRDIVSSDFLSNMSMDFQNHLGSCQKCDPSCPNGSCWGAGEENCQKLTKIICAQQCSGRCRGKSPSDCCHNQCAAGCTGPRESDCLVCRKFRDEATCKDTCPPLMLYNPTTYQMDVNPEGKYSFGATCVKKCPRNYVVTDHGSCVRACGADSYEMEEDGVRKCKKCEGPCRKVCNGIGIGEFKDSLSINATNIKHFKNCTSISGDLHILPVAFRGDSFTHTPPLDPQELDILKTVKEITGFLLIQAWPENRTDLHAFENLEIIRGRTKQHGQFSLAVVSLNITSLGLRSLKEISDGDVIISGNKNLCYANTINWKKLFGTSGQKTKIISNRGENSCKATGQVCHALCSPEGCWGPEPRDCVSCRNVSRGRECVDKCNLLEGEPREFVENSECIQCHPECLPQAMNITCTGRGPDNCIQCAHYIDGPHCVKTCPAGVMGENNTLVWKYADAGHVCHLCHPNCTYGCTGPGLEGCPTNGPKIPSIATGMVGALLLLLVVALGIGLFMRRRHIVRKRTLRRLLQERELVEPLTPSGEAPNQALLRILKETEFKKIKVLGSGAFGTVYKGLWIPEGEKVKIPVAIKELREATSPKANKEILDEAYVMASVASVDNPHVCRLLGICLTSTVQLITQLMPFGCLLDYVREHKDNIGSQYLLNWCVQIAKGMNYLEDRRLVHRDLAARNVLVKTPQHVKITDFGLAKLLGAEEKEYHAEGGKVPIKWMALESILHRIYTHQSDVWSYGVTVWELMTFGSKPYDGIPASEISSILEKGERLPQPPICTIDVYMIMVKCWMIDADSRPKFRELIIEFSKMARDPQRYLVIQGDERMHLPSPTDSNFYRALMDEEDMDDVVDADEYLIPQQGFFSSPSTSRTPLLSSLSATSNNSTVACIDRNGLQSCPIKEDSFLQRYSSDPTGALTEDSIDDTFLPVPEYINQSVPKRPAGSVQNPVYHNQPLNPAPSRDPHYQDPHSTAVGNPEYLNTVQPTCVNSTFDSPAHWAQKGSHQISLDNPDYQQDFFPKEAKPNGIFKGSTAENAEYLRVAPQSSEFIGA
- Measurement description: EGFR Exon20 ASV insertion cellular phosphorylation inhibition (MSD pEGFR Y1068/total EGFR);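 further: electrochemiluminescent readout on an MSD SECTOR Imager, IL3-independent transduced cells in medium with 1% FBS, compound concentration series at 37 °C and 5% CO2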
- Conditions used: Ba/F3 EGFR ASV ins cells, 4 h compound, p-EGFR(Y1068)/total EGFR
One number for each entry, in µM.

* C=CC(=O)Nc1cc(Nc2nccc(Nc3cc(Cl)c(F)cc3C(C)(C)O)n2)c(OC)cc1N1CC[C@@H](N(C)C)C1 [Compound 52] | 0.0204
* C=CC(=O)Nc1cc(Nc2ncnc(Nc3cccnc3C(C)(C)O)n2)c(OC)cc1N(C)CCN(C)C [Compound 8] | 0.117
* C=CC(=O)Nc1cc(Nc2ncnc(Nc3cc(Cl)c(F)cc3C(C)(C)O)n2)c(OC)cc1N1CC[C@@H](N(C)C)C1 [Compound 33] | 0.0069

Switching to the query record.
Qu. I have this molecule here, C=CC(=O)Nc1cc(Nc2ncnc(Nc3cc(F)c(F)cc3C(C)(C)O)n2)c(OC)cc1N1CC[C@@H]1CN(C)C [Compound 19] , and I need its recorded IC50.
Ans. 0.0297
